Kind request: treat 2 as inclusive, so logP at 2 or higher is Criterion met, anything lower is Criterion not met.

Exam item: Decide: logP of O=P(O)(O)CN(CP(=O)(O)O)CP(=O)(O)O >= 2?
Marked response: Criterion not met

Exam item: Identify whether the reported logP of the following compound is 2 or greater: O=C(O)CNC(=O)c1cccc(I)c1
Marked response: Criterion not met

Exam item: Entry CC(C)N(C(=O)COc1nnc(C(F)(F)F)s1)c1ccc(F)cc1 : is its logP no less than 2?
Marked response: Criterion met

Exam item: // inclusive: logP at least 2? input: CC(C)COC(=O)c1cc(=O)[nH]c(=O)[nH]1
Marked response: Criterion not met

Exam item: Decide: is the reported value of logP for BrCBr equal to or greater than 2?
Marked response: Criterion not met

Exam item: Kindly determine if logP recorded for Cc1cccc(C)c1NC(=O)c1cc(S(N)(=O)=O)c(Cl)cc1O is above or exactly 2.
Marked response: Criterion met

Exam item: Hi, just wondering whether CCOC1OC2OC3(C)CC(OC4OC(C(=O)O)C(O)C(O)C4O)C4C(C)CCC(C1C)C24OO3 (configuration not stated) shows logP of 2 or higher.
Marked response: Criterion not met

Exam item: Check this compound for logP at or above 2: CNC(=O)NCCn1nc(-c2ccccc2)ccc1=O
Marked response: Criterion not met

Exam item: Is the recorded value of logP equal to or greater than 2 for this compound? COCCOC(=O)C1=C(C)NC(C)=C(C(=O)OC(C)C)C1c1cccc([N+](=O)[O-])c1 (configuration not stated)
Marked response: Criterion met

Exam item: decide whether the reported logP for Cc1ccc(C=[N+]([O-])C(C)(C)C)cc1 is at least 2.
Marked response: Criterion not met

Exam item: Has CN(C)c1ccc(C=NNC(=N)N)cc1 a recorded logP greater than or equal to 2?
Marked response: Criterion not met

Exam item: # check: logP of CN1CCCC1=O is greater than or equal to 2
Marked response: Criterion not met
